system: HOP-92 NSCLC; assay: NCI-60 one-dose screen, 48 h; settings: 10 µM unless noted
The panel holds about 83,000 compounds, 20% with a hit somewhere; the sample as a whole holds those more often. Active and inactive are the calls of the source. The calls were made as follows: active = growth percent below 10; inactive = the rest.
Entry note: the call must match one of active, inactive

Look over these answered cases.
>>> class_assignment("O=C1Nc2ccccc2/C1=C/C(=N/c1nnc(-c2ccccc2)s1)c1ccccc1")
"inactive"
>>> class_assignment("COc1ccccc1-c1ccc2c(N)c(C(=O)c3ccc4c(c3)OCO4)sc2n1")
"inactive"
>>> class_assignment("CCN(CC)CCCC(C)N/C(=C1\\C(=O)NC(=O)\\C1=C(/NC(C)CCCN(CC)CC)c1cccc(OC)c1)c1cccc(OC)c1 (stereo not given)")
"active"

Fill in: this test's call for S=c1[nH]nc(CSc2ncnc3c2c(-c2ccccc2)cn3-c2ccc(Cl)cc2)o1 is ___
inactive

Hi, sorry to bother you, what did the test record for O=C(O)c1c([N+](=O)[O-])cnc2ccccc12 ?
inactive

Just curious, what result did Cn1cc(-c2ccc(-c3cn(C)c4ncccc34)[nH]2)c2cccnc21 get here?
active

I'd appreciate the recorded outcome for CCN(CC)CC(O)CNc1c2ccc([N+](=O)[O-])cc2nc2cc(OC)c(OC)cc12 (stereo not given) from this test.
active

Tell me the assay call for COc1ccc(/C=C2\N=C3SC=C(N)N3C2=O)cc1 please.
active

Short answer needed: outcome of this test for COc1cccc(/C=C2/C(=O)N(Cc3ccco3)SC2=S)c1OC ?
inactive

###

system: NCI/ADR-RES ovarian; experiment: NCI-60 one-dose screen, 48 h; details: 10 µM unless noted
Compounds without any hit were thinned out: in the full panel of roughly 83,000, 20% have a hit. Activity calls are given as the source filed them. The calls were made as follows: active = growth percent below 10; inactive = the rest.
Give your call using only these classes: 1 (yes) = active, 0 (no) = inactive

>>> class_assignment("C(=N\\Nc1nnn(Cc2ccccc2)n1)/c1ccccc1")
"1 (yes)"

Lab log entry: Cc1cc2c(cc1C)NC1=C(N2)OC(c2c3ccccc3cc3ccccc23)C1=O (stereo unspecified) — outcome as called in the assay?
1 (yes)

Write down the call the test reported for this compound. Item: S=c1[nH]nc(CSc2ncnc3c2c(-c2ccccc2)cn3-c2ccc(Cl)cc2)o1
0 (no)

Per the records of this test, what outcome belongs to O=C1/C(=C/c2ccc(Cl)cc2Cl)CN(S(=O)(=O)c2ccccc2)C/C1=C\c1ccc(Cl)cc1Cl ?
0 (no)

Which outcome did this test record for the compound Nc1nc2c(c3ncccc13)C(c1cccc(Br)c1)Cc1ncccc1-2 (stereo unspecified) ?
0 (no)

What classification did Cc1nc2nc(N)nc(N)c2nc1C end up with in this test?
0 (no)

###

test system: ACHN renal; assay: NCI-60 one-dose screen, 48 h; details: 10 µM unless noted
About 83,000 compounds went through this panel and 20% of them were active in at least one assay; those are over-represented in the sample as a whole. Activity calls are given as the source filed them. The calls were made as follows: active = growth percent below 10; inactive = the rest.
Classes to choose from: active, inactive

>>> class_assignment("CC(C)(C)n1cc(-c2ccnc(NCCNS(=O)(=O)c3ccccc3)c2)c(-c2cccc(O)c2)n1")
"inactive"
>>> class_assignment("Nc1cc2ccncc2c2ccccc12")
"inactive"
>>> class_assignment("Cc1ccc(-c2nc(/C=N/Nc3cc(C)nc4ccc(Br)cc34)c(C)o2)cc1")
"active"

Per the assay record, what outcome was assigned to CCCCCCCCCCCCCCCCNCCC[C@@H](C)[C@H]1CC[C@H]2[C@@H]3[C@H](OCCCN)C[C@@H]4C[C@H](OCCCN)CC[C@]4(C)[C@H]3C[C@H](OCCCN)[C@]12C ?
active

Test call for this compound, please: CCN(CC)CCCCNc1ccc(NCCCCN(CC)CC)c2c1C(=O)c1ccccc1C2=O
inactive

Could you please tell me the result logged for O=C(O)c1cccnc1Br in this assay?
inactive

For Cc1ccc2c(NCCCN(C)C)c3c(C)nn(C)c3nc2c1 , which call appears in the assay record?
inactive

How was O=C(Nc1cccc2[nH]c(C(F)(F)F)nc12)c1ccc(Br)cc1F classified in this test?
inactive

Status in this test for O=c1c2cccc3c(NC4CCCCC4)ccc(c32)c2nc3ccccc3n12 ?
inactive
